Target: T1, CTLA4-Fc (Fitzgerald, #30R-CD152) (human, UniProt P16410 38-152)
T1 construct: Bought; also called human CTLA-4 (Fitzgerald); biotinylated-CTLA4; not shown: Fc part of the bought fusion, not described
T1 sequence (P16410 38-152 limits assumed): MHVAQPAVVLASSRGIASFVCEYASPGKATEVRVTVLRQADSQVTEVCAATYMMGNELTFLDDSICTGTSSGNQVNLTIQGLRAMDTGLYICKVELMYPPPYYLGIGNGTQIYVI
Assay: SPR (Biacore), immobilised CTLA4-Fc
property.name: Kd (nM)
Quick note: give the figure in nM, leave out the unit.

Example results:
1) CD86 mutant 1043 (ligand, Variant of the CD86 extracellular domain) APLKIQAYFNETADLPCQFANSQNLSLSELVVFWQDQENLVLNEVYLGKEKFDSVDSKYMGRTSFDSDSWTLRLHNLQIKDKGIYQCIIHHKKPTGMIKIHEMNSELSVLA :: 10
2) CD86 mutant 1039 (ligand, Variant of the CD86 extracellular domain) APLKIQAYFNETADLPCQFANSQNLSLSELVVFWQDQENLVLNEVYLGKEKFDSVSSKYMGRTSFDSDSWTLRLHNLQIKDKGIYQCIIHHKKPSGMVKIHQMDSELSVLA :: 8
3) CD86 mutant H79A (Peach et al.) (ligand, also called Prior Art) APLKIQAYFNETADLPCQFANSQNQSLSELVVFWQDQENLVLNEVYLGKEKFDSVASKYMGRTSFDSDSWTLRLHNLQIKDKGLYQCIIHHKKPTGMIRIHQMNSELSVLA :: 63

Kd for CD86 mutant 1038 (ligand, Variant of the CD86 extracellular domain) APLKIQAYFNETADLPCQFANSQNLSLSELVVFWQDQENLVLNEVYLGKEKFDSVDSKYMGRTSFDSDSWTLRLHNLQIKDKGIYQCIIHHKKPTGMVKIHEMNSELSVLA is 12

// Kd lookup, binder = CD86 mutant 1040 (ligand, Variant of the CD86 extracellular domain) APLKIQAYFNETADLPCQFANSQNLSLSELVVFWQDQENLVLNEVYLGKERFDSVDSKYMGRTSFDSDSWTLRLHNLQIKDKGRYQCIIHHKKPTGMINIHQMNSELSVLA , result: 3

GET /value?item= CD86 mutant 1045 (ligand, Variant of the CD86 extracellular domain) APLKIQAYFNETADLPCQFANSQNLTLSELVVFWQDQENLVLNEVYLGKEKFDSVDSKYMGRTSFDSDSWTLRLHNLQIKDKGLYQCIIHHKKPTGLVKIHEMNSELSVLA &field=Kd returns 9

According to the records, this binder CD86 mutant 1044 (ligand, Variant of the CD86 extracellular domain) APLKIQAYFNETADLPCQFANSQNLTLSELVVFWQDQENLVLNEVYLGKEKFDSVSSKYMGRTSFDSDSWTLRLHNLQIKDKGIYQCIIHHKKPTGMIKIHEMSSELSVLA displays Kd of 8

For reference, reported Kd for CD86 mutant 1047 (ligand, Variant of the CD86 extracellular domain) APLKIQAYFNETADLPCQFANSQNLSLSELVVFWQDQENLVLNEVYLGKEKFDSVDSKYMGRTSFDSDSWTLRLHNLQIKDKGIYQCIIHHKKPTGLVKIHEMNSELSVLA stands at 10

get_value(item= human wild-type CD86 (monomeric soluble extracellular domain) (ligand, also called wild type protein) APLKIQAYFNETADLPCQFANSQNQSLSELVVFWQDQENLVLNEVYLGKEKFDSVHSKYMGRTSFDSDSWTLRLHNLQIKDKGLYQCIIHHKKPTGMIRIHQMNSELSVLA , readout=Kd) returns 50

Item: CD86 mutant 1041 (ligand, Variant of the CD86 extracellular domain) APLKIQAYLNETADLPCQFANSQNLSLSELVVFWQDQENLVLNEVYLGKEKFDSVDSKYMGRTSFDSDSWTLRLHNLQIKDKGIYQCIIHHKKPTGLVKIHEMNSELSVLA | Kd: 12

src = patent US20210238298A1
